# experimentalProtocol: Therapeutic index, ratio of IC50 for human HaCaT to MIC for Staphylococcus aureus
# Type: toxicity
# protocolConditions: HaCaT cells
measure: selectivity ratio

- CCCCCCCCCCCC[S+](C)Cc1cc(C[n+]2ccccc2)cc(C[S+](C)CCCCCCCCCCCC)c1.F[B-](F)(F)F.F[B-](F)(F)F.F[B-](F)(F)F (stereo unspecified): 4.3

====

# experimentalProtocol: Hemolytic activity against human erythrocytes incubated for 1 hr by UV-vis spectroscopic method
# Type: ADME, cell-based, Erythrocyte
Item-by-item account of HC50 at 1 h
measure: HC50 at 1 h

* CCCCCCCCCCCC[S+](C)Cc1cc(C[n+]2ccccc2)cc(C[S+](C)CCCCCCCCCCCC)c1.F[B-](F)(F)F.F[B-](F)(F)F.F[B-](F)(F)F (configuration not stated) | 29 µM
* CCCCCCCCCCCC[S+](C)Cc1cc(Cn2cc(CS(=O)(=O)O)nn2)cc(C[S+](C)CCCCCCCCCCCC)c1.F[B-](F)(F)F.F[B-](F)(F)F (configuration not stated) | 35 µM
